tested on: Mycobacterium tuberculosis; assay: Antitubercular activity against fluoroquinolone-resistant Mycobacterium tuberculosis H37Rv isolate 1 by two-fold serial dilution method; type: functional
Let's look at some compounds and their measured MIC.
The answer is to be given in µM; state only the numeric part.

Previously resolved entries follow.
1. CCC(C)[C@@H]1CN([C@@H](CNC)Cc2ccccc2)CCN1CCC12CC3CC(CC(C3)C1)C2 (some centres undefined) ... 28
2. CNC[C@@H](Cc1ccccc1)N1CCN(CCC(c2ccccc2)c2ccccc2)CC1 ... 70
3. CNC[C@@H](Cc1ccccc1)N1CCN(CCC23CC4CC(CC(C4)C2)C3)[C@H](C(C)C)C1 ... 14

Could you now consider this next compound?
Need MIC, item `CNC[C@@H](Cc1ccccc1)N1CCN(CCC23CC4CC(CC(C4)C2)C3)CC1`
38
